target.desc: human TLR9 (Homo sapiens, UniProt Q9NR96)
Sequence (Q9NR96 26-1032): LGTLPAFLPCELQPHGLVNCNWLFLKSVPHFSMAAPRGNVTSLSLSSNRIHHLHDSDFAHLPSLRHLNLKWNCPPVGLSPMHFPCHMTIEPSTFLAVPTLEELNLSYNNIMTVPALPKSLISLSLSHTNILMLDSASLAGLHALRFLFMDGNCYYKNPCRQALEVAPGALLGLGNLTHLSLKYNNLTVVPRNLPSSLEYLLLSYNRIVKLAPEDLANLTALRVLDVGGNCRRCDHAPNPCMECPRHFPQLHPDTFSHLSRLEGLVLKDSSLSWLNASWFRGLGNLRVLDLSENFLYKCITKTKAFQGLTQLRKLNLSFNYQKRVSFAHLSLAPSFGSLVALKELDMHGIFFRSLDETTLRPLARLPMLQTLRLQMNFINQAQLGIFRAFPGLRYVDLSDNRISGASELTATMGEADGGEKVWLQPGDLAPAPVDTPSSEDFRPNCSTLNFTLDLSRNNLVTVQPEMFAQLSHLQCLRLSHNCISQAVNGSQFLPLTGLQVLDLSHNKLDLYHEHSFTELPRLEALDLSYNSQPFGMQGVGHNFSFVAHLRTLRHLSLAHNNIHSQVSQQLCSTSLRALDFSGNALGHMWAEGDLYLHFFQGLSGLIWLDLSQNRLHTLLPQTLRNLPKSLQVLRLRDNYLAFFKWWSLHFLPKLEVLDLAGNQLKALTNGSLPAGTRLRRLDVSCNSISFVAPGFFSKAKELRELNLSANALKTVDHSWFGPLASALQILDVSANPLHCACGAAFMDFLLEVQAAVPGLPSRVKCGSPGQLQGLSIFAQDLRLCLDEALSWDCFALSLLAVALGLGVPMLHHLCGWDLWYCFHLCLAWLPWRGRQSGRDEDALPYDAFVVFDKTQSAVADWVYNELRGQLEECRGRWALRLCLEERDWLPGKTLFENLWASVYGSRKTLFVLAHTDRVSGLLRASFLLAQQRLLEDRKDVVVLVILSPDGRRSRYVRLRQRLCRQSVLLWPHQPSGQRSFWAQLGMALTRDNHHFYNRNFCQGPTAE
procedure.details: TLR9 inhibition reporter assay (HEK-Blue cells, SEAP reporter, ODN2006 stimulation)
measurement.parameters: HEK-Blue cells overexpressing human TLR9, SEAP reporter, ODN2006 5 nM
observed.property: IC50

compound | observed.property | measured
Cc1ccnc2[nH]cc(-c3[nH]c4ccc(C5CCNCC5)cc4c3C(C)C)c12 | IC50 | 100 to 1000 nM
Cc1cc(-c2[nH]c3ccc(C4CCNCC4)cc3c2C(C)C)cn2cc(C(=O)NCC(C)(C)O)nc12 | IC50 | 1000 to 50000 nM
CCc1c(-c2ccc3oc(=O)[nH]c3c2)[nH]c2ccc(C3CCNCC3)cc12 | IC50 | 100 to 1000 nM
Cc1c(-c2[nH]c3ccc(C4CCN(C(=O)CN(C)C)CC4)cc3c2C(C)C)nn2ncnc2c1C | IC50 | 1000 to 50000 nM
CC(C)c1c(-c2ccnc3[nH]ncc23)[nH]c2ccc(C3CCN(C4CCNCC4C)CC3)cc12 (stereo not shown) | IC50 | 100 to 1000 nM
CC(C)c1c(-c2cnc3ccnn3c2)[nH]c2ccc(C3CCN(CC(C)(C)O)CC3)cc12 | IC50 | 1000 to 50000 nM
CCc1c(-c2ccnc3[nH]cnc23)[nH]c2ccc(C3CCNCC3)cc12 | IC50 | 100 to 1000 nM
Cc1cc(-c2[nH]c3ccc(C4CCN(C5CCS(=O)(=O)CC5)CC4)cc3c2C(C)C)cn2nnnc12 | IC50 | 1000 to 50000 nM
Cc1nc2cc(-c3[nH]c4ccc(C5CCN(CC(=O)N(C)C)CC5)cc4c3C(C)C)ccn2n1 | IC50 | 1000 to 50000 nM
CC(C)c1c(-c2ccnc3[nH]ncc23)[nH]c2ccc(C3CCN(C(=O)C4CCNCC4)CC3)cc12 | IC50 | 1000 to 50000 nM
CC(C)c1c(-c2ccc(C#N)c3ncccc23)[nH]c2ccc(C3CCN(C(=O)CN(C)C)CC3)cc12 | IC50 | 1000 to 50000 nM
CC(C)c1c(-c2ccnc3[nH]ncc23)[nH]c2ccc(C3CCN(C(=O)CS(C)(=O)=O)CC3)cc12 | IC50 | > 50000 nM
CC(C)c1c(-c2ccc(C#N)c3[nH]ncc23)[nH]c2ccc(C3CCNCC3)cc12 | IC50 | 1000 to 50000 nM
Cc1cc(-c2[nH]c3ccc(C4CCN(C(=O)CN5[C@@H]6CC[C@H]5COC6)CC4)cc3c2C(C)C)cn2nnnc12 | IC50 | 1000 to 50000 nM
CC(C)c1c(-c2ccc3ncccc3c2)[nH]c2ccc(C3CCNCC3)cc12 | IC50 | 1000 to 50000 nM
Cc1c(-c2[nH]c3ccc(C4CCN(CC(=O)N(C)C)CC4)cc3c2C(C)C)ccc2nnnn12 | IC50 | 1000 to 50000 nM

---

target.desc: human TLR7 (Homo sapiens)
Sequence (Q9NYK1 27-1049): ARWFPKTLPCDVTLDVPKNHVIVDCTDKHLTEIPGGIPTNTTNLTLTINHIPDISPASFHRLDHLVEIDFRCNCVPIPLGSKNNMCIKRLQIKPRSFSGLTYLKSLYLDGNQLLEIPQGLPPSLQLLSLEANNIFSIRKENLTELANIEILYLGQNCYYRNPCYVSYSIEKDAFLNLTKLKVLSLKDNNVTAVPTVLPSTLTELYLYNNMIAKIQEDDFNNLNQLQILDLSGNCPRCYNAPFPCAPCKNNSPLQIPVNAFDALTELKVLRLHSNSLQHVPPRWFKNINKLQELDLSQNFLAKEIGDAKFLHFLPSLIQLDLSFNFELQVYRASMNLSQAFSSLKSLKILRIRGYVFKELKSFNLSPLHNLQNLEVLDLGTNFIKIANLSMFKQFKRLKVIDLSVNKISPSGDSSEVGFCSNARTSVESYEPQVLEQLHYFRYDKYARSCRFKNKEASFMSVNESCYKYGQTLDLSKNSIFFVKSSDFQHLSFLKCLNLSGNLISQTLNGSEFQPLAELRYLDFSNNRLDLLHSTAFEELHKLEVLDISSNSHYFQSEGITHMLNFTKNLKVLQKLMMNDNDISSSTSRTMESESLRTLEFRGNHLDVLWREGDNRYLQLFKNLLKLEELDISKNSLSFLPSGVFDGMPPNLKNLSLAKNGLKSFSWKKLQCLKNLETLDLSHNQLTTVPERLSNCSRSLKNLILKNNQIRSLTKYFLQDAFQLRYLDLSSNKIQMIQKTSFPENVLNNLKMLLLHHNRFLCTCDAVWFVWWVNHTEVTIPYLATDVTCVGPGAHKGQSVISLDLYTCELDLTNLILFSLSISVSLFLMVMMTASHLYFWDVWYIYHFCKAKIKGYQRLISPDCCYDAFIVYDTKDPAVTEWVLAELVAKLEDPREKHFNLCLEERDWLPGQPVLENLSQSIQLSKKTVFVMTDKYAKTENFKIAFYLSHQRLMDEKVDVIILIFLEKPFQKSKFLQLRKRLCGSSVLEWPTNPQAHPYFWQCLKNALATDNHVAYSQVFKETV
procedure.details: TLR7 inhibition reporter assay (HEK-Blue cells, SEAP reporter, gardiquimod stimulation)
measurement.parameters: HEK-Blue cells overexpressing human TLR7, SEAP reporter, gardiquimod 7.5 μM
The entries below are paired with their reported IC50.
observed.property: IC50

record.smiles | measured
CC(C)c1c(-c2ccc(C#N)c3[nH]ncc23)[nH]c2ccc(C3CCNCC3)cc12 | 1000 to 50000 nM
Cc1nc2c(-c3[nH]c4ccc(C5CCN(C(=O)C[C@H](C)O)CC5)cc4c3C(C)C)ccc(C)n2n1 | > 3130 nM
Cc1cc(-c2[nH]c3ccc(C4CCN(C(=O)CN(C)C)CC4)cc3c2C(C)C)cn2cc(C(=O)N(C)CCO)nc12 | < 100 nM
Cc1cc(-c2[nH]c3ccc(C4CCN(CC#N)CC4)cc3c2C(C)C)cn2ccnc12 | < 100 nM
Cc1cc(-c2[nH]c3ccc(C4CCN(C5COC5)CC4)cc3c2C(C)C)c2ccccc2n1 | < 100 nM
CC(C)c1c(-c2ccn3cnnc3c2)[nH]c2ccc(C3CCNCC3)cc12 | < 100 nM
Cc1c(-c2[nH]c3ccc(C4CCN(C(=O)CN(C)C)CC4)cc3c2C(C)C)nn2ncnc2c1C | < 100 nM
Cc1c(-c2[nH]c3ccc(C4CCNCC4)cc3c2C(C)C)c2cccnc2n1C | < 100 nM

---

target.desc: human TLR7 (Homo sapiens)
Construct: host or cells: HEK-Blue cells (HEK293-derived reporter line)
procedure.details: TLR7 inhibition reporter assay (HEK-Blue cells, SEAP reporter, gardiquimod stimulation)
Type: cell-based
measurement.parameters: HEK-Blue cells overexpressing human TLR7, SEAP reporter, gardiquimod 7.5 μM

record.smiles | IC50
COc1cc(-c2[nH]c3ccc(C4CCN(Cc5cnn[nH]5)CC4)cc3c2C(C)C)nn2ncnc12 | < 100 nM
Cc1cn2c(C)cc(-c3[nH]c4ccc(C5CCNCC5)cc4c3C(C)C)cc2n1 | 100 to 1000 nM
CC(C)c1c(-c2cnc3ncnn3c2)[nH]c2ccc(C3CCNCC3)cc12 | < 100 nM
Cc1cc(-c2[nH]c3ccc(C4CCN(C(=O)CN(C)C)CC4)cc3c2C(C)C)cc2cccnc12 | < 100 nM
Cc1c(C2CCNCC2)ccc2[nH]c(-c3ccnc4[nH]ncc34)c(C)c12 | < 100 nM
CC(C)c1c(-c2ccnc3[nH]cc(O)c23)[nH]c2ccc(C3CCNCC3)cc12 | 1000 to 50000 nM
CC(C)c1c(-c2cnc3nccn3c2)[nH]c2ccc(C3CCNCC3)cc12 | 100 to 1000 nM
Cc1nnn2ccc(-c3[nH]c4ccc(C5CCN(CC(=O)N(C)C)CC5)cc4c3C(C)C)cc12 | < 100 nM
CC(C)c1c(-c2ccnc3[nH]ncc23)[nH]c2ccc(C3CCN(Cc4cc(F)cnc4Cl)CC3)cc12 | 100 to 1000 nM
Cc1c(-c2nccc3[nH]cnc23)[nH]c2ccc(C3CCN(C4CCN(C(C)C)CC4)CC3)cc12 | 1000 to 50000 nM
CC(C)c1c(-c2cc(N)nc3[nH]cnc23)[nH]c2ccc(C3CCNCC3)cc12 | < 100 nM
COc1cc(-c2[nH]c3ccc(C4CCN(C5COC5)CC4)cc3c2C(C)C)cn2ccnc12 | < 100 nM
Fc1cc(-c2[nH]c3ccc(C4CCNCC4)cc3c2CC(F)F)cn2ccnc12 | < 100 nM
CCc1c(-c2ccnc3[nH]ncc23)[nH]c2ccc(C3CCN(Cc4csc(C(C)C)n4)CC3)cc12 | 100 to 1000 nM
CN(C)CC(=O)N1CCC(c2ccc3[nH]c(-c4cc(F)c5nccn5c4)c(CC(F)F)c3c2)CC1 | < 100 nM
Cc1cc(-c2[nH]c3ccc(C4CCNCC4)cc3c2C(C)C)c2[nH]c(C)cc2n1 | 1000 to 50000 nM
